Target: Urotensin-2 receptor (Homo sapiens, UniProt Q9UKP6)
Sequence (Q9UKP6 whole entry): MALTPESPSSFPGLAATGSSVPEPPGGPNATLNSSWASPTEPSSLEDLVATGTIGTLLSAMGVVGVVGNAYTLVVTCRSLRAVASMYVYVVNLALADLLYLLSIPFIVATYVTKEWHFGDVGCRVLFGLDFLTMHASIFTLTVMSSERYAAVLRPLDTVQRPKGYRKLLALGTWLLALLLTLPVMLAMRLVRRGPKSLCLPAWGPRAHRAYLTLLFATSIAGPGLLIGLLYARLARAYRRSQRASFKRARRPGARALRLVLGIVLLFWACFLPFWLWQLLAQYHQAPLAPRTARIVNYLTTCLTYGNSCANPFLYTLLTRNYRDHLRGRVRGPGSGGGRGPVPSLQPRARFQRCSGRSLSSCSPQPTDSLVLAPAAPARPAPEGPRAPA
Property: Ki; scope: individual compounds
Give the number; nM is assumed, so skip it.

# compound, unitTag, Ki
rows = [
    ("CC(C)C[C@H](NC(=O)c1cc2ccccc2o1)C(=O)NC1CCN(Cc2ccc(OCCCN(C)C)cc2)C1 (single isomer, unassigned; 2c)", "nM", 158),
    ("CN(C)CCCOc1ccc(CN2CC[C@H](NC(=O)c3ccc(Cl)c(Cl)c3)C2)cc1", "nM", 200),
]

Pending compound:
Asked: // returns reported Ki for input CC(C)C[C@H](NC(=O)Oc1ccccc1)C(=O)N[C@H]1CCN(Cc2ccc(OCCCN(C)C)cc2)C1
Given back: 251
